# SYSTEM UNDER TEST: PDGFRA (human) (UniProt P16234)
# Sequence (P16234 whole entry, looked up): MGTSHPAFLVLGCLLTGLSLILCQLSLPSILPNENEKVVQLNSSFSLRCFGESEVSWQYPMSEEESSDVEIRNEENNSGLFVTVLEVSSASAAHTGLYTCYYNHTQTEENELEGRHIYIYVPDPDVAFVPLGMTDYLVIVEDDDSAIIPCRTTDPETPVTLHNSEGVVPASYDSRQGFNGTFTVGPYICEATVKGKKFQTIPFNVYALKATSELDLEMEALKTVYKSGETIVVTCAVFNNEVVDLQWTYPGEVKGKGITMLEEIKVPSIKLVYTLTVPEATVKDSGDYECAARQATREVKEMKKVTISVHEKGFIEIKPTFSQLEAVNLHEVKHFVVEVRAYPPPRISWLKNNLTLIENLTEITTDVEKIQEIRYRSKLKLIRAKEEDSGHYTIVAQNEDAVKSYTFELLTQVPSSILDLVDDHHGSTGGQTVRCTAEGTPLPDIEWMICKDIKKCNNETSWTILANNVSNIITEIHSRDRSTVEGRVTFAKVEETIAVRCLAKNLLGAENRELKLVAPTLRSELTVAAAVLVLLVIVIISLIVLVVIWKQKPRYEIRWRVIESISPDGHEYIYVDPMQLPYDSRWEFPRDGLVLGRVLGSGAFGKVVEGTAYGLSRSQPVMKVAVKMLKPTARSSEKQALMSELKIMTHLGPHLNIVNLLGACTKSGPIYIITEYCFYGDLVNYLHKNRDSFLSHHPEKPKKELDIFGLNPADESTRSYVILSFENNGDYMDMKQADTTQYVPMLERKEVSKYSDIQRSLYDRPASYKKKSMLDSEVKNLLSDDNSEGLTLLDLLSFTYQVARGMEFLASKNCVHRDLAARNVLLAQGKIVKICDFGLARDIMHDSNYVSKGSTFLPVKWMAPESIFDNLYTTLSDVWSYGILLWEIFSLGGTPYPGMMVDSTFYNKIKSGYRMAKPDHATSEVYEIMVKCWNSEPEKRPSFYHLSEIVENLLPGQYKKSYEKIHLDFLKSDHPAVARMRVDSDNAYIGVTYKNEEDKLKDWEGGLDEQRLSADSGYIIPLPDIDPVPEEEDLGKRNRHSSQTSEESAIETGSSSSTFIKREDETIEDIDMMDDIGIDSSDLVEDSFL
# METHOD: KINOMEscan competition binding
# SETUP CONDITIONS: compound 10.0 µM
REPORTED METRIC: kinase still bound, per cent of control (%)

Would you please look over these solved cases?
Input line: Returns the measured kinase still bound, per cent of control for the input molecule. Input: Cc1cnc(-c2cnc(NCCNc3ccc(C#N)cn3)nc2-c2ccc(Cl)cc2Cl)[nH]1
Output line: 100

Input line: Another molecule: Cn1cc(C2=C(c3ccc(Cl)cc3Cl)C(=O)NC2=O)c2ccccc21
Output line: 100

I: COc1ccc(CNC(=O)Nc2ncc([N+](=O)[O-])s2)cc1
II: O=C1Nc2cc(Br)ccc2/C1=C1/Nc2ccccc2/C1=N\O
Input line: For the two items I and II , which reports the higher kinase still bound, per cent of control value? Give the chosen item's label as your response.
Output line: I

----------
# SYSTEM UNDER TEST: DMPK (human) (UniProt Q09013)
# Sequence (Q09013 whole entry, looked up): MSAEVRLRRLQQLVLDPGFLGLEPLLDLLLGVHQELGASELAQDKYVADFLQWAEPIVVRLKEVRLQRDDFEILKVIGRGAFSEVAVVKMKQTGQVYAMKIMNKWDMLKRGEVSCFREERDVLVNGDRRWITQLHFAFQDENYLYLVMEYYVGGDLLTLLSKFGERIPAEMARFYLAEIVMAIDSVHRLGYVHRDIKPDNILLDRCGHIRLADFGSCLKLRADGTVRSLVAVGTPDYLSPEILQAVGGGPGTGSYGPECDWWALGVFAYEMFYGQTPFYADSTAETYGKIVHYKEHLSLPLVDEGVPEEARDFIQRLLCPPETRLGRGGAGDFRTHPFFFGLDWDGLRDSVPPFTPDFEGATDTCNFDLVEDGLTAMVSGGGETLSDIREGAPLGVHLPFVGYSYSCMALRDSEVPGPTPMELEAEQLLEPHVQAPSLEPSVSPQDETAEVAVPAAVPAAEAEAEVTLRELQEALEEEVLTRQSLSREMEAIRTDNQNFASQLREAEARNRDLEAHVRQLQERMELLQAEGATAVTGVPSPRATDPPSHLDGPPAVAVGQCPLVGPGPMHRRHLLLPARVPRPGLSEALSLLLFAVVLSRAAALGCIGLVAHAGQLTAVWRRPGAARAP
# METHOD: KINOMEscan competition binding
# SETUP CONDITIONS: compound 10.0 µM
REPORTED METRIC: kinase still bound, per cent of control (%)

Input line: Given O=C1Nc2cc(Br)ccc2/C1=C1/Nc2ccccc2/C1=N\O , state its recorded kinase still bound, per cent of control.
Output line: 100

Input line: Cool, now COc1ccc(CNC(=O)Nc2ncc([N+](=O)[O-])s2)cc1
Output line: 100

Input line: Another compound to look at: Cn1cc(C2=C(c3ccc(Cl)cc3Cl)C(=O)NC2=O)c2ccccc21
Output line: 98

Input line: Further, for Cc1cnc(-c2cnc(NCCNc3ccc(C#N)cn3)nc2-c2ccc(Cl)cc2Cl)[nH]1 ?
Output line: 92

----------
# SYSTEM UNDER TEST: EPHA3 (human)
# METHOD: KINOMEscan competition binding
# SETUP CONDITIONS: compound 10.0 µM
REPORTED METRIC: kinase still bound, per cent of control (%)

Input line: Which value of kinase still bound, per cent of control has been reported for COc1ccc(CNC(=O)Nc2ncc([N+](=O)[O-])s2)cc1 in the records?
Output line: 100

Input line: Try this compound too: Cc1cnc(-c2cnc(NCCNc3ccc(C#N)cn3)nc2-c2ccc(Cl)cc2Cl)[nH]1
Output line: 100

P: O=C1Nc2cc(Br)ccc2/C1=C1/Nc2ccccc2/C1=N\O
Q: Cn1cc(C2=C(c3ccc(Cl)cc3Cl)C(=O)NC2=O)c2ccccc21
Input line: // compare measured kinase still bound, per cent of control between P and Q ; output the lower one Give the label under which the chosen entry appears.
Output line: P

----------
# Tested on: KIT (human), P10721 [V559D/V654A]
# Sequence (P10721 whole entry V559D/V654A, looked up): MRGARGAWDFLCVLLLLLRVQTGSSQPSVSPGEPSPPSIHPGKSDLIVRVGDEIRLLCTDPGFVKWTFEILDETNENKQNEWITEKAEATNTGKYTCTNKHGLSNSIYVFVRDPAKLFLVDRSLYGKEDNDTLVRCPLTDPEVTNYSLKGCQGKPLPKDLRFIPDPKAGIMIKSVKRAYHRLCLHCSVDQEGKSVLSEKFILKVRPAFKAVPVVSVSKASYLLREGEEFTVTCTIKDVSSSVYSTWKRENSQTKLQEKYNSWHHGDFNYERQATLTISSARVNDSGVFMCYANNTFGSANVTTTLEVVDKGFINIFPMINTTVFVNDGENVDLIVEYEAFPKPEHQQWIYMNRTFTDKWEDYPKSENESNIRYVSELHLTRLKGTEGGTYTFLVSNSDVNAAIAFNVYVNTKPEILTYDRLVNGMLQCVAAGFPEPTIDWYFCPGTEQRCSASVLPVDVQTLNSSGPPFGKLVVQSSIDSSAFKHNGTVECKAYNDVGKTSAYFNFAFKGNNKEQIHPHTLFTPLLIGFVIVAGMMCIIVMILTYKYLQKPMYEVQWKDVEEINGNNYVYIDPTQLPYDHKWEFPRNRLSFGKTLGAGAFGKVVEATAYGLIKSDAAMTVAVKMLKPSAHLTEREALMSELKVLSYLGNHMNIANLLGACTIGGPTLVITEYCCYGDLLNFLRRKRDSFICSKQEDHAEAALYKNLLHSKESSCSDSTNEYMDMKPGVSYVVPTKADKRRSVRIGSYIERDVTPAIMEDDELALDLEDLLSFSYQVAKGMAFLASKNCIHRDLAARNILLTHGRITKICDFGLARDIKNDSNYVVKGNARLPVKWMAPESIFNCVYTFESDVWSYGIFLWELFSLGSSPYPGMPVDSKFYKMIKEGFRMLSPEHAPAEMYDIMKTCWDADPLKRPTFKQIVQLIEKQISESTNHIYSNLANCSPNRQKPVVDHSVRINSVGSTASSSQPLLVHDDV
# METHOD: KINOMEscan competition binding
# SETUP CONDITIONS: compound 10.0 µM
REPORTED METRIC: kinase still bound, per cent of control (%)

Consider the worked cases shown below.
Input line: Look at this compound and give its reported kinase still bound, per cent of control. COc1ccc(CNC(=O)Nc2ncc([N+](=O)[O-])s2)cc1
Output line: 88

Input line: Same again, this time with Cn1cc(C2=C(c3ccc(Cl)cc3Cl)C(=O)NC2=O)c2ccccc21
Output line: 83

1: Cc1cnc(-c2cnc(NCCNc3ccc(C#N)cn3)nc2-c2ccc(Cl)cc2Cl)[nH]1
2: O=C1Nc2cc(Br)ccc2/C1=C1/Nc2ccccc2/C1=N\O
Input line: Pick one: 1 or 2 . Which has the bigger kinase still bound, per cent of control number? Output the label that corresponds to your choice.
Output line: 1

----------
# SYSTEM UNDER TEST: HCK (human)
# METHOD: KINOMEscan competition binding
# SETUP CONDITIONS: compound 10.0 µM
REPORTED METRIC: kinase still bound, per cent of control (%)

Solved cases below.
Input line: So what's the measured kinase still bound, per cent of control for this one? Cn1cc(C2=C(c3ccc(Cl)cc3Cl)C(=O)NC2=O)c2ccccc21
Output line: 100

Input line: Query Cc1cnc(-c2cnc(NCCNc3ccc(C#N)cn3)nc2-c2ccc(Cl)cc2Cl)[nH]1 next
Output line: 100

a: COc1ccc(CNC(=O)Nc2ncc([N+](=O)[O-])s2)cc1
b: O=C1Nc2cc(Br)ccc2/C1=C1/Nc2ccccc2/C1=N\O
Input line: Two entries are listed, a and b . Which one carries the higher kinase still bound, per cent of control? Answer by stating the label of the chosen item.
Output line: a
(a: 100%, b: 1.2%)
